Cited source: PubChem BioAssay AID1508601

- experiment.description: p53 stabilisation in HPV-positive human cells, imaging, p53-positive nuclei imaging, 24 h, 48 h (AID 1508601)
- test.parameters: 24/48 h, measured here: cell number at 24 h, Library stock concentration: 500 nM
The whole screen tested about 5,700 compounds, of which about 85 (1%) were called active. This is one part of a sample in which actives are shown more often than they occur.
Listed here: items and their measured nuclei count, normalised.
measure: nuclei count, normalised (%)

* CC[n+]1c(-c2ccccc2)c2cc(N)ccc2c2ccc(N)cc21 | 102
* CN1C(=O)[C@@]23C[C@]4([C@]56C[C@@]78SS[C@@](CO)(C(=O)N7[C@@H]5Nc5ccccc56)N(C)C8=O)c5ccccc5N[C@H]4N2C(=O)[C@]1(CO)SS3 | 119
* CC1=CC(=O)c2c(O)cccc2C1=O | 119
* OC1CN2CCC(O)[C@H]2C(O)C1O (stereo not given in full) | 98.9
* NOCCC(N)C(=O)O (stereo not given) | 99.2
